What Plant response rating (visual injury vs untreated controls) was measured for each of the following?
Tested on: barnyardgrass (Echinochloa crus-galli)
measurement-description: Test A preemergence, soil drench
Format: in vivo
condition-parameters: Rate 500 g/ha, approx. eleven days

Data request: May I ask what Plant response rating (visual injury vs untreated controls) has been recorded for O=C1C(n2ccc(C3CC3)n2)OCN1c1cccc(C(F)(F)F)c1 (stereo not shown) [Compound 28] ?
Data returned: 100

Data request: May I ask what Plant response rating (visual injury vs untreated controls) has been recorded for CC(C)(C)c1nn(C2CCN(c3cccc(C(F)(F)F)c3)C2=O)cc1Cl (stereo not shown) [Compound 14] ?
Data returned: 0

Data request: May I ask what Plant response rating (visual injury vs untreated controls) has been recorded for CC1CCc2cn(C3CCN(c4cccc(C(F)(F)F)c4)C3=O)nc21 (stereo not shown) [Compound 11] ?
Data returned: 100

Data request: May I ask what Plant response rating (visual injury vs untreated controls) has been recorded for CC(C)(C)c1ccn(C2OCN(c3cccc(C(F)(F)F)c3)C2=O)n1 (stereo not shown) [compound 9] ?
Data returned: 100
